Assayed system: recombinant human mPGES-1 (Homo sapiens, UniProt O14684)
Construct: made in house; host or cells: Rosetta E. coli (microsomal/membrane fraction)
Sequence (O14684 whole entry): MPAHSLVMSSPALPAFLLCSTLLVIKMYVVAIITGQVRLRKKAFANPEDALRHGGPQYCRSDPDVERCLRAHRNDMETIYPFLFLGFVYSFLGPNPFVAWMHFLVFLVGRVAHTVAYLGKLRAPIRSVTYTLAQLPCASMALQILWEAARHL
Protocol summary: mPGES-1 inhibition, HTRF detection of PGE2
Format: biochemical
Listed molecules paired with reported inhibition at 10 µM
Write down the numeric answer in % and omit the unit.

// solved cases for inhibition at 10 µM follow
INPUT: Form entry - test system: recombinant human mPGES-1 (Homo sapiens, UniProt O14684); read-out: inhibition at 10 µM; molecule: Cn1c(Nc2ccccc2C(F)(F)F)nc2cc(C(=O)N[C@H]3CC[C@H](C(F)(F)F)CC3)c(OCC(F)F)nc21
OUTPUT: 100

INPUT: Form entry - test system: recombinant human mPGES-1 (Homo sapiens, UniProt O14684); read-out: inhibition at 10 µM; molecule: Cc1ccnc(Cl)c1Nc1nc2cc(C(=O)N[C@H]3CC[C@H](C(F)(F)F)CC3)c(OCC(F)F)nc2[nH]1
OUTPUT: 100

INPUT: Form entry - test system: recombinant human mPGES-1 (Homo sapiens, UniProt O14684); read-out: inhibition at 10 µM; molecule: O=C(NCC(F)(F)C(F)(F)C(F)(F)C(F)(F)F)c1cc2nc(Nc3c(Cl)cc(F)cc3Cl)[nH]c2nc1OCC(F)F
OUTPUT: 98

INPUT: Form entry - test system: recombinant human mPGES-1 (Homo sapiens, UniProt O14684); read-out: inhibition at 10 µM; molecule: CC(C)(C)[C@H]1CC[C@H](NC(=O)c2cnc3[nH]c(Nc4c(Cl)cccc4Cl)nc3c2)CC1
OUTPUT: 100

INPUT: Form entry - test system: recombinant human mPGES-1 (Homo sapiens, UniProt O14684); read-out: inhibition at 10 µM; molecule: Cn1c(Nc2c(Cl)cncc2Cl)nc2cc(C(=O)N[C@H]3CC[C@H](C(F)(F)F)CC3)c(OCC(F)F)nc21
OUTPUT: 94

More entries:
INPUT: Form entry - test system: recombinant human mPGES-1 (Homo sapiens, UniProt O14684); read-out: inhibition at 10 µM; molecule: Cn1c(Nc2c(Cl)cncc2Cl)nc2cc(C(=O)Nc3ccc(Br)cc3)c(OC3CCOC3)nc21 (stereo not drawn)
OUTPUT: 100

INPUT: Form entry - test system: recombinant human mPGES-1 (Homo sapiens, UniProt O14684); read-out: inhibition at 10 µM; molecule: O=C(NCc1ccccc1C(F)(F)F)c1cc2nc(Nc3c(Cl)cncc3Cl)[nH]c2nc1OCC(F)(F)F
OUTPUT: 100
